Target entity: human β3 adrenergic receptor (Homo sapiens)
Construct: expressed in transfected cells
Sequence (P13945 whole entry): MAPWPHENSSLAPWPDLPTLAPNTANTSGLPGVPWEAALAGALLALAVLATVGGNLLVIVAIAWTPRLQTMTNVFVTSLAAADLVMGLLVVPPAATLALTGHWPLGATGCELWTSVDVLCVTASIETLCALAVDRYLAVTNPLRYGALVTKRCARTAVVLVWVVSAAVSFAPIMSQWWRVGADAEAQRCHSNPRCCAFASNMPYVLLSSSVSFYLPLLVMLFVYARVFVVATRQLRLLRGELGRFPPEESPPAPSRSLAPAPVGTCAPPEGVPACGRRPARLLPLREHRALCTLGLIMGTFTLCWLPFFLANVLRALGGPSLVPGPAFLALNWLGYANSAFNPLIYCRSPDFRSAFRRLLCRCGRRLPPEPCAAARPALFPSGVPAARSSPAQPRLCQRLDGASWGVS
Method notes: whole cell receptor coupled c-AMP assay (Emax relative to isoproterenol)
Format: cell-based
Assay context: % intrinsic activity: maximal response divided by isoproterenol maximal response times 100; transfected CHO cells; average of at least 3 runs
Observed property: Emax (%) ± SEM

>>> print(df.to_string())
                                   compound  observed_property  endpoint_value
0  CC(C)(Cc1c[nH]c2ccccc12)NC[C@H](O)COc1ccccc1-c1ccon1     Emax (%) ± SEM            53.9
1  Cc1cc(-c2ccccc2OC[C@@H](O)CNC(C)(C)Cc2c[nH]c3c(OCC#N)cccc23)on1.O=C(O)C(F)(F)F     Emax (%) ± SEM            63.2
2  CC(C)(Cc1c[nH]c2c(Oc3ncccc3C#N)cccc12)NC[C@H](O)COc1ccccc1-c1cccs1     Emax (%) ± SEM            97.7

1. CC(C)(Cc1c[nH]c2ccc(F)cc12)NC[C@H](O)COc1ccccc1-c1cccs1
2. C[C@H](CN1CCc2ccccc21)NC[C@H](O)COc1ccccc1-c1ccon1
3. CC(C)(Cc1c[nH]c2c(CCS(C)(=O)=O)cccc12)NC[C@H](O)COc1ccccc1-c1cccs1
Ask: Form: Sort by [Emax (%) ± SEM] Order [ ascending ] List each label, following the requested order.
Result: 2, 1, 3
(2: 35.2%, 1: 57.1%, 3: 82.1%)

A. CC(C)(Cc1c[nH]c2ccccc12)NC[C@H](O)COc1ccc(F)cc1-c1ccon1
B. CC(C)(Cc1c[nH]c2cc(C(=O)O)ccc12)NC[C@H](O)COc1ccccc1-c1ccc(S(N)(=O)=O)s1
Ask: Lab notebook, comparison: A versus B , higher Emax (%) ± SEM goes to which? Returns: label corresponding to the selected item.
Result: B
(B: 78.4%, A: 43.4%)

A. CC(C)(Cc1c[nH]c2c(OCC#N)cccc12)NC[C@H](O)COc1ccccc1-c1cccs1 [Example 137]
B. CC(C)(Cc1c[nH]c2ccc(F)cc12)NC[C@H](O)COc1ccccc1-c1ccon1
Ask: I'm curious whether A or B has the smaller Emax (%) ± SEM number. Which is it? Field: selected label. Fill in the label of the entry you choose.
Result: B
(B: 40.8%, A: 65.5%)

I. CC(C)(Cc1c[nH]c2ccccc12)NC[C@H](O)COc1ccccc1-n1ccc(C#N)c1
II. CC(C)(Cc1c[nH]c2c(NS(=O)(=O)c3ccccc3)cccc12)NC[C@H](O)COc1ccccc1-c1cccs1
Ask: Between the entries labeled I and II , whose measured Emax (%) ± SEM is lower? Give the label of your selection.
Result: I
